tested on: L1210 leukemia ip in BDF1 mice, survival T/C; assay: NCI In Vivo Anticancer Drug Screen. Data for tumor model L1210 Leukemia (intraperitoneal) in B6D2F1 (BDF1) mice; settings: endpoint: mean survival time; dose: 100.0 mg/kg/injection; schedule: Q04DX002 (ip); vehicle: Klucel (hydroxypropylcellulose) (HPC); higher = longer survival
Inconclusive results and toxic doses are left out.
We begin with a simple list: items and their reported T/C.

// below: answered compounds
compound=Cc1cc([N+](=O)[O-])c(NC2CCCCC2)c([N+](=O)[O-])c1 valuemeasured="100 % of control"
compound=c1ccc2c(Cc3c4ccccc4cc4ccccc34)c3ccccc3cc2c1 valuemeasured="90 % of control"
compound=CS(=O)(=O)OCC(COS(C)(=O)=O)(COS(C)(=O)=O)COS(C)(=O)=O valuemeasured="96 % of control"

Q: Which T/C value is on record for "O=C(OCc1ccccc1CN1CCOCC1)c1cccc(Br)c1" ?
A: 108 % of control

Q: Any idea what T/C was measured for "CCCCCOC(=O)Nc1cccc2ccccc12" ?
A: 94 % of control
